Entry source: patent US20090137577A1

- ASSAY_TARGET: mGluR2 receptor (metabotropic glutamate receptor 2) (Homo sapiens)
- PROTOCOL: mGluR2 potentiator screen (FLIPR, EC10-EC20 glutamate challenge)
- RUN_CONDITIONS: geometric mean; read-out: mGluR 2 EC50 (geometric mean)
EXPERIMENTAL_READOUT: EC50 (nM)
One number for each entry, in nM.

MOLECULE	RESULT_UNITS	EC50
Cc1cc(CN2C[C@@H](C)OC2=O)ccc1-c1ccc(F)cc1F	nM	167
CC1CN(Cc2ccc(OCCc3ccc(C#N)cc3)cc2)C(=O)O1 (stereo not shown)	nM	219
COc1cc(COc2ccc(CN3CC(C)OC3=O)cc2)cc(OC)c1 (stereo not shown)	nM	244
Cc1ccc(F)cc1-c1ccc(CN2C[C@@H](C)OC2=O)cc1	nM	53.7
C[C@@H]1CN(Cc2ccc(-c3ccc4c(c3)CCO4)nc2)C(=O)O1	nM	561

Hello, I would appreciate it if you could give EC50 for each entry below.
1. C[C@@H]1CN(Cc2ccc(-c3ccc(OC(F)F)cc3)nc2)C(=O)O1
2. CC(Oc1ccc(CN2CCN(CCCC(F)(F)F)CC2=O)cc1)C1CCCCC1 (stereo not shown)
3. Cc1ccc(-c2ccc(CN3C[C@@H](C)OC3=O)cn2)c(F)c1

1. 531
2. 681
3. 429

Please give EC50 for each item listed below.
1. C[C@@H]1CN(Cc2ccc(-c3ccc(Cl)c(Cl)c3)cc2)C(=O)O1
2. COc1cccc(CCOc2ccc(CN3CC(C)OC3=O)cc2)c1 (stereo not shown)
3. CC(C)COc1ccc(CN2C(=O)OC[C@H]3CCCC[C@H]32)cc1
4. Cc1cc(CN2C[C@@H](C)OC2=O)ccc1OCc1ccc(F)cc1C(F)(F)F
5. CC1CN(Cc2ccc(OCCC3CC3)cc2)C(=O)O1 (stereo not shown)
6. C[C@@H]1CN(Cc2ccc(OCc3ccc(C(F)(F)F)cc3F)c(F)c2)C(=O)O1
7. C[C@@H]1CN(Cc2ccc(-c3cnc4ccccc4c3)cc2)C(=O)O1
8. CC1CN(Cc2ccc(OCC3(C)CC3)cc2)C(=O)O1 (stereo not shown)

[74.6, 217, 637, 217, 187, 870, 286, 723]

---

I'd be grateful if you could share measured pEC50 for these entries.
- ASSAY_TARGET: mGluR2 receptor (metabotropic glutamate receptor 2) (Homo sapiens)
- Construct: expressed in transfected cells
- PROTOCOL: mGluR2 potentiator screen (FLIPR, EC10-EC20 glutamate challenge)
- Assay type: cell-based
- RUN_CONDITIONS: geometric mean; read-out: mGluR 2 EC50 (geometric mean)
Give bare numbers, as −log10 of the molar value.

Known results for compounds:
COMPOUND	ASSAY_TARGET	EXPERIMENTAL_READOUT	REPORTED_MEASUREMENT
CC(Oc1ccc(CN2C(=O)O[C@H](c3ccccc3)[C@@H]2C)cc1)c1ccccc1 (some centres unmarked) [Example 50]	mGluR2 receptor (metabotropic glutamate receptor 2) (Homo sapiens)	pEC50	6.58
CCC(CC)CN1CCN(Cc2ccc(OC(C)C3CCCCC3)cc2)C(=O)C1 (centres unmarked) [Example 217]	mGluR2 receptor (metabotropic glutamate receptor 2) (Homo sapiens)	pEC50	6.02

I'm hoping you can list pEC50 for every compound here, please.
1. Cc1cc(C)n(-c2cccc(-c3ccc(CN4C[C@@H](C)OC4=O)cc3)c2)n1 [Example 199]
2. Cc1cc(CN2C[C@@H](C)OC2=O)ccc1OCc1ccc(C(F)(F)F)cc1 [Example 284]

[6.09, 6.51]

Lab note: need pEC50 for CCCN1CCN(Cc2ccc(OC(C)C3CCCCC3)cc2)C(=O)C1 (centres unmarked) [Example 215] on mGluR2 receptor (metabotropic glutamate receptor 2) (Homo sapiens), anyone have it?
6.36

---

- ASSAY_TARGET: mGluR2 receptor (metabotropic glutamate receptor 2) (Homo sapiens)
- Construct: expressed in transfected cells
- PROTOCOL: mGluR2 potentiator screen (FLIPR, EC10-EC20 glutamate challenge)
- Format: cell-based
- RUN_CONDITIONS: geometric mean; read-out: mGluR 2 EC50 (geometric mean)
pEC50: −log10 of the molar value.
Record met whenever pEC50 is at 7 or higher; record not met when lower.

Examples from the recorded data:
COMPOUND	QUALITATIVE_LABEL
C[C@@H]1CN(Cc2ccc(OCCCc3ccccc3)cc2)C(=O)O1	met
COc1ccc(Cl)cc1-c1ccc(CN2C[C@@H](C)OC2=O)cc1	met
CCC(C)CCOc1ccc(CN2CC(C)OC2=O)cc1 (stereo not drawn)	met
CCOC(=O)c1cccc(-c2ccc(CN3C[C@@H](C)OC3=O)cc2)c1	met

Now look at this one.
Assess whether reported pEC50 for `C[C@@H]1CN(Cc2ccc(OCCCOc3ccc(F)cc3)nc2)C(=O)O1` sits at 7 or higher.
not met

---

- ASSAY_TARGET: mGluR2 receptor (metabotropic glutamate receptor 2) (Homo sapiens, UniProt Q14416)
- Sequence (Q14416 19-872, species assumed): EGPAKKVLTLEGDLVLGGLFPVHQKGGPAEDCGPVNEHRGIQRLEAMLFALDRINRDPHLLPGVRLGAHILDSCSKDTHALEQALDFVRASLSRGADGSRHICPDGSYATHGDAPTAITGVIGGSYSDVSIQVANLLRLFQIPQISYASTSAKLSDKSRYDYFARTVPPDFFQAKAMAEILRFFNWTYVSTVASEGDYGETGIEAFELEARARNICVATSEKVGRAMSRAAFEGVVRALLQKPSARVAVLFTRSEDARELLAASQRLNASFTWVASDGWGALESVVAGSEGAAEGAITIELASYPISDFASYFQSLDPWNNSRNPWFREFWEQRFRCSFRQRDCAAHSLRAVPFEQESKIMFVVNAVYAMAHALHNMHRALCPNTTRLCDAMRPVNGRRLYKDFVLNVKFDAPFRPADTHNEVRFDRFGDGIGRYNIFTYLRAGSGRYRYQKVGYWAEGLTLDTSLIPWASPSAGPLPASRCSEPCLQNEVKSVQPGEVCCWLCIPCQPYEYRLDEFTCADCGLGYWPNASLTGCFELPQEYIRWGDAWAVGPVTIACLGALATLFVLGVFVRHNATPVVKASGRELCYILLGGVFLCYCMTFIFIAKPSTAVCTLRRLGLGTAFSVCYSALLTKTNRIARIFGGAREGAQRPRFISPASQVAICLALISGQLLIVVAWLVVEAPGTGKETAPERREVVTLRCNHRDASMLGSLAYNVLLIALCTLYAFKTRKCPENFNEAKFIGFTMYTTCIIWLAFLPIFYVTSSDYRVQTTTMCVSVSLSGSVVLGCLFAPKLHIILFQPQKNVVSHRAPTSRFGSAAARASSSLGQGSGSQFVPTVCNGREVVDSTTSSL
- PROTOCOL: mGluR2 potentiator screen (FLIPR, EC10-EC20 glutamate challenge)
- RUN_CONDITIONS: geometric mean; read-out: mGluR 2 EC50 (geometric mean)
Provide the recorded EC50 for the entries that follow.
One number for each entry, in nM.

Some solved entries appear below for comparison.
COMPOUND	EC50, nM
CC1CN(Cc2ccc(OCCCc3ccccc3)cc2)C(=O)O1 (stereo not drawn) [Example 104]	37.9
CC(=O)c1cccc(-c2ccc(CN3C[C@@H](C)OC3=O)cc2)c1 [Example 193]	514
CC1CN(Cc2ccc(OCCCc3ccncc3)cc2)C(=O)O1 (stereo not drawn) [Example 116]	934
C[C@@H]1CN(Cc2ccc(-c3ccc(C(F)(F)F)cc3F)nc2)C(=O)O1 [Example 258]	205
Cc1ccc(F)cc1COc1ccc(CN2C[C@@H](C)OC2=O)cc1 [Example 205]	68
CCC(CC)Oc1ccc(CN2CC(C)OC2=O)cc1 (stereo not drawn) [Example 136]	774

So what does the record say about EC50 for CC1(C)COC(=O)N(Cc2ccc(OC3CCCCC3)cc2)C1 [Example 43] ?
336

---

So I've got a bunch of compounds here, and I need their log10(EC50) values.
- ASSAY_TARGET: mGluR2 receptor (metabotropic glutamate receptor 2) (Homo sapiens)
- PROTOCOL: mGluR2 potentiator screen (FLIPR, EC10-EC20 glutamate challenge)
- RUN_CONDITIONS: geometric mean; read-out: mGluR 2 EC50 (geometric mean)
Recorded EC50 (log10, nM)

Dear colleague, could you please provide log10(EC50) for the compounds listed below?
1. C[C@@H]1CN(Cc2ccc(-c3ccc(OC(F)F)cc3Cl)nc2)C(=O)O1 [Example 312]
2. COc1cc(F)ccc1COc1ccc(CN2CC(C)OC2=O)cc1 (centres unmarked) [Example 147]
3. Cc1ccc(CN2CCN(Cc3ccc(OC(C)C4CCCCC4)cc3)C(=O)C2)cc1 (centres unmarked) [Example 216]
4. CC(Oc1ccc(CN2CC(c3ccncc3)OC2=O)cc1)C1CCCCC1 (centres unmarked) [Example 209]
5. C[C@@H]1CN(Cc2ccc(-c3cccc(Cl)c3F)c(F)c2)C(=O)O1 [Example 291]

2.76
2.07
2.67
2.81
1.78

---

- ASSAY_TARGET: mGluR2 receptor (metabotropic glutamate receptor 2) (Homo sapiens, UniProt Q14416)
- PROTOCOL: mGluR2 potentiator screen (FLIPR, EC10-EC20 glutamate challenge);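 further: HEK cells stably expressing human mGluR2 with GL15 G protein, Fluo-4 calcium fluorescence read on FLIPR, compounds added before an EC10-EC20 glutamate challenge to detect potentiation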
- RUN_CONDITIONS: geometric mean; read-out: mGluR 2 EC50 (geometric mean)
Can you tell me pEC50 for the items I'm about to list?
Numbers only, as −log10 of the molar value.

Solved cases (5 shown):
MOLECULE	REPORTED_MEASUREMENT
COc1ccc(-c2ccc(CN3C[C@@H](C)OC3=O)cn2)c(F)c1F [Example 262]	6.44
CCOc1ccc(COc2ccc(CN3CC(C)OC3=O)cc2)cc1 (stereo not shown) [Example 119]	6.79
CC1CN(Cc2ccc(OCCCn3ccc4ccccc43)cc2)C(=O)O1 (stereo not shown) [Example 149]	7.45
COc1cccc(OC)c1-c1ccc(CN2C[C@@H](C)OC2=O)cc1 [Example 161]	6.64
Cc1ccc(C)n1-c1ccc(CN2C[C@@H](C)OC2=O)cc1 [Example 178]	6.28

Report pEC50 for every entry below.
1. CC1CN(Cc2ccc(OCCOc3ccccc3)cc2)C(=O)O1 (stereo not shown) [Example 121]
2. CC(C)CCN1CCN(Cc2ccc(OC(C)C3CCCCC3)cc2)C(=O)C1 (stereo not shown) [Example 220]
3. CCOc1cccc(COc2ccc(CN3CC(C)OC3=O)cc2)c1 (stereo not shown) [Example 138]
4. CC1CN(Cc2ccc(OCc3cc(F)cc(F)c3)cc2)C(=O)O1 (stereo not shown) [Example 91]
5. O=C1OC(c2cccnc2)CN1Cc1ccc(-c2ccc(F)cc2F)cc1 (stereo not shown) [Example 302]

6.36
6.10
7.06
6.82
7.10

Give pEC50 for all molecules that follow.
1. O=C1OCCCN1Cc1ccc(OCC2CCC2)cc1 [Example 28]
2. C[C@@H]1CN(Cc2ccc(O[C@H](C)c3ccccc3)cc2)C(=O)O1 [Example 67]
3. C[C@@H]1CN(Cc2ccc(OCCC(C)(C)C)cc2)C(=O)O1 [Example 213]
4. CC(Oc1ccc(CN2CCN(C(C)C)CC2=O)cc1)C1CCCCC1 (stereo not shown) [Example 201]
5. CC(C)Oc1ccc(CN2CC(c3ccccc3)OC2=O)cc1 (stereo not shown) [Example 44]
6. C[C@@H]1CN(Cc2ccc3c(c2)CCC(C)(C)O3)C(=O)O1 [Example 87]
7. COc1ccc(-c2ccc(CN3C[C@@H](C)OC3=O)cc2F)cn1 [Example 295]
8. CC1CN(Cc2ccc(OCc3ccc(Cl)cc3)cc2)C(=O)O1 (stereo not shown) [Example 89]

1. 5.91
2. 6.62
3. 7.70
4. 6.12
5. 6.24
6. 5.86
7. 6.09
8. 7.16
